- System: HIV-1RF
- TEST DETAILS: XTT cytoprotection assay, CEM-SS cells infected with HIV-1RF
- Assay type: cell-based
- EXPERIMENTAL CONTEXT: Human immunodeficiency virus 1, 168 h, read-out: EC50 (50% cytoprotection); HIV-1RF, CEM-SS cells, seven days, XTT
// assign True if EC50 falls strictly below 600 nM, else False (ties count as False)

[
  {
    "SUBSTANCE SMILES": "C[C@H](NC(=O)c1ccccc1SC(=O)OCCCCCl)C(N)=O",
    "CAT": "False"
  },
  {
    "SUBSTANCE SMILES": "CCCCNC(=O)Sc1ccccc1C(=O)NCCS(N)(=O)=O",
    "CAT": "False"
  },
  {
    "SUBSTANCE SMILES": "CCCNC(=O)Sc1ccccc1C(=O)NCCC(N)=O",
    "CAT": "True"
  }
]

Consider now this further compound.
Challenge: Lab log: compare recorded EC50 with 600 nM; is it strictly lower for CCOC(=O)CNC(=O)Sc1ccccc1C(=O)N[C@@H](C)C(N)=O ?
Response given: True

###

# pEC50 values compiled below
- Tested on: HIV-1RF
- TEST DETAILS: XTT cytoprotection assay, CEM-SS cells infected with HIV-1RF
- Type: cell-based
- EXPERIMENTAL CONTEXT: Human immunodeficiency virus 1, 168 h, read-out: EC50 (50% cytoprotection); HIV-1RF, CEM-SS cells, seven days, XTT
Just so you know, pEC50 here is -log10 of the concentration in molar units; reply with that number alone.

Examples with their reported pEC50 follow.
[
  {
    "SUBSTANCE SMILES": "C[C@H](NC(=O)c1ccccc1SC(=O)NCCCCl)C(N)=O",
    "QUANTITY MEASURED": "pEC50",
    "QUANTITATIVE RESULT": 6.10
  },
  {
    "SUBSTANCE SMILES": "NC(=O)CNC(=O)c1ccccc1SC(=O)NCCCCl",
    "QUANTITY MEASURED": "pEC50",
    "QUANTITATIVE RESULT": 6.14
  },
  {
    "SUBSTANCE SMILES": "CSC(=N)Sc1ccccc1C(=O)N[C@@H](C)C(N)=O",
    "QUANTITY MEASURED": "pEC50",
    "QUANTITATIVE RESULT": 6.15
  },
  {
    "SUBSTANCE SMILES": "NS(=O)(=O)c1ccc(CNC(=O)c2ccccc2SC(=O)NCCCCl)cc1",
    "QUANTITY MEASURED": "pEC50",
    "QUANTITATIVE RESULT": 6.32
  },
  {
    "SUBSTANCE SMILES": "COc1ccc(C(=O)Sc2ccccc2C(=O)NCCC(N)=O)cc1",
    "QUANTITY MEASURED": "pEC50",
    "QUANTITATIVE RESULT": 5.43
  }
]

Noted for Cc1cccc(C(=O)Sc2ccccc2C(=O)NCCC(N)=O)c1 : its pEC50 reads 5.44

Noted for C[C@H](NC(=O)c1ccccc1SC(=O)OCCBr)C(N)=O : its pEC50 reads 5.94

Noted for NC(=O)CCNC(=O)c1ccccc1SC(=O)c1ccccc1 : its pEC50 reads 5.48

Noted for CSC(=N)Sc1ccccc1C(=O)NCCC(N)=O : its pEC50 reads 6.15

Noted for CCCCCNC(=O)Sc1ccccc1C(=O)N[C@H](C)C(N)=O : its pEC50 reads 6.52

Noted for NC(=O)CCNC(=O)c1ccc(Cl)cc1SC(=O)c1cccnc1 : its pEC50 reads 4.50

Noted for NC(=O)CNC(=O)c1ccccc1SC(=O)OCCBr : its pEC50 reads 5.87

Noted for COc1ccccc1C(=O)Sc1ccccc1C(=O)NCCC(N)=O : its pEC50 reads 5.57

###

- Test system: HIV-1RF
- TEST DETAILS: XTT cytoprotection assay, CEM-SS cells infected with HIV-1RF
- Format: cell-based
- EXPERIMENTAL CONTEXT: Human immunodeficiency virus 1, 168 h, read-out: EC50 (50% cytoprotection); HIV-1RF, CEM-SS cells, seven days, XTT
QUANTITY MEASURED: pEC50
Just so you know, pEC50 here is -log10 of the concentration in molar units; reply with that number alone.

Examples with their reported pEC50 follow.
[
  {
    "COMPOUND": "CC(C)(C)c1ccc(C(=O)Sc2ccccc2C(=O)NCCC(N)=O)cc1",
    "pEC50": 5.35
  },
  {
    "COMPOUND": "COc1cc(OC)cc(C(=O)Sc2ccccc2C(=O)NCCC(N)=O)c1",
    "pEC50": 5.09
  },
  {
    "COMPOUND": "C[C@@H](NC(=O)c1ccccc1SC(=O)OCCCCCl)C(N)=O",
    "pEC50": 5.53
  },
  {
    "COMPOUND": "Cc1ccccc1C(=O)Sc1ccccc1C(=O)NCCC(N)=O",
    "pEC50": 5.01
  }
]

Reported pEC50 (HIV-1RF) for entry C[C@@H](NC(=O)c1ccccc1SC(=O)NCCCCl)C(N)=O is 6.15

Reported pEC50 (HIV-1RF) for entry COc1cc(C(=O)Sc2ccccc2C(=O)NCCC(N)=O)cc(OC)c1OC is 5.42

Reported pEC50 (HIV-1RF) for entry CSC(=N)Sc1ccccc1C(=O)N[C@H](C)C(N)=O is 6.28

Reported pEC50 (HIV-1RF) for entry CCC(C)C(NC(=O)c1ccccc1SC(=O)OCCCCCl)C(N)=O (stereo not drawn) is 5.67

###

# IC50 values compiled below
- System: HIV transgenic mouse model spleen cells
- TEST DETAILS: Cytotoxicity, HIV transgenic mouse model spleen cells
- Type: cell-based
Only the number, expressed in µM, is required.

Examples with their reported IC50 follow.
[
  {
    "SUBSTANCE SMILES": "COc1cc(OC)cc(C(=O)Sc2ccccc2C(=O)NCCC(N)=O)c1",
    "IC50 / µM": 136
  },
  {
    "SUBSTANCE SMILES": "CC(C)(C)c1ccc(C(=O)Sc2ccccc2C(=O)NCCC(N)=O)cc1",
    "IC50 / µM": 123
  }
]

From here, focus on the item given below.
Noted for Cc1ccccc1C(=O)Sc1ccccc1C(=O)NCCC(N)=O : its IC50 reads 59

###

- System: HIV-1RF
- TEST DETAILS: XTT cytoprotection assay, CEM-SS cells infected with HIV-1RF
- Assay type: cell-based
- EXPERIMENTAL CONTEXT: Human immunodeficiency virus 1, 168 h, read-out: EC50 (50% cytoprotection); HIV-1RF, CEM-SS cells, seven days, XTT
QUANTITY MEASURED: EC50 (µM)
Only the number, expressed in µM, is required.

[
  {
    "SUBSTANCE SMILES": "NC(=O)CCNC(=O)c1ccccc1SC(=O)c1cccnc1",
    "MEASUREMENT TARGET": "HIV-1RF",
    "EC50, µM": 2.9
  }
]

Noted for CCNC(=O)Sc1ccccc1C(=O)N[C@H](C)C(N)=O : its EC50 reads 0.42

Noted for CC(C)(C)NC(=O)Sc1ccccc1C(=O)NCC(N)=O : its EC50 reads 6.9

Noted for CCCNC(=O)Sc1ccccc1C(=O)N[C@H](C)C(N)=O : its EC50 reads 0.85

Noted for CSC(=N)Sc1ccccc1C(=O)NCC(N)=O : its EC50 reads 0.63

Noted for CC(C)COC(=O)Sc1ccccc1C(=O)N[C@H](C)C(N)=O : its EC50 reads 1.37

Noted for COc1cccc(C(=O)Sc2ccccc2C(=O)NCCC(N)=O)c1 : its EC50 reads 2.6

Noted for CCCCCCNC(=O)Sc1ccccc1C(=O)N[C@H](C)C(N)=O : its EC50 reads 0.76

Noted for NC(=O)CCNC(=O)c1cccc(SC(=O)c2cccnc2)c1 : its EC50 reads 149

Noted for NC(=O)CCNC(=O)c1ccc(Cl)cc1SC(=O)Cc1ccccc1 : its EC50 reads 2.5

###

- TEST DETAILS: XTT assay, cytotoxicity (cellular growth inhibition) in CEM-SS cells
- Format: cell-based
- EXPERIMENTAL CONTEXT: human
# log10(IC50 at 7 days) values compiled below
All values: base-10 log of IC50 at 7 days in µM.

[
  {
    "SUBSTANCE SMILES": "CSC(=N)Sc1ccccc1C(=O)N[C@H](C)C(N)=O",
    "log10(IC50 at 7 days)": 1.30
  },
  {
    "SUBSTANCE SMILES": "NC(=O)CCNC(=O)c1ccccc1SC(=O)NCCBr",
    "log10(IC50 at 7 days)": 0.69
  },
  {
    "SUBSTANCE SMILES": "Cc1cccc(C(=O)Sc2ccccc2C(=O)NCCC(N)=O)c1",
    "log10(IC50 at 7 days)": 2.13
  }
]

Noted for COc1ccccc1C(=O)Sc1ccccc1C(=O)NCCC(N)=O : its log10(IC50 at 7 days) reads 2.90

Noted for CC(C)(C)NC(=O)Sc1ccc(Cl)cc1C(=O)NCCC(N)=O : its log10(IC50 at 7 days) reads 1.05

Noted for COc1cc(OC)cc(C(=O)Sc2ccccc2C(=O)NCCC(N)=O)c1 : its log10(IC50 at 7 days) reads 2.01

Noted for C[C@@H](NC(=O)c1ccccc1SC(=O)OCCCCCl)C(N)=O : its log10(IC50 at 7 days) reads 2.30

Noted for CC(C)COC(=O)Sc1ccccc1C(=O)N[C@H](C)C(N)=O : its log10(IC50 at 7 days) reads 2.36

Noted for CSC(=N)Sc1ccccc1C(=O)NCC(N)=O : its log10(IC50 at 7 days) reads 1.30

Noted for CCCCNC(=O)Sc1ccccc1C(=O)NCCS(N)(=O)=O : its log10(IC50 at 7 days) reads 1.57

Noted for CSC(=N)Sc1ccccc1C(=O)NCCC(N)=O : its log10(IC50 at 7 days) reads 1.30

Noted for CCCCCCNC(=O)Sc1ccccc1C(=O)N[C@H](C)C(N)=O : its log10(IC50 at 7 days) reads 1.91

Noted for CCNC(=O)Sc1ccccc1C(=O)N[C@H](C)C(N)=O : its log10(IC50 at 7 days) reads 1.93

Noted for CC(C)COC(=O)Sc1ccc(Cl)cc1C(=O)NCCC(N)=O : its log10(IC50 at 7 days) reads 1.30

Noted for NC(=O)CNC(=O)c1ccccc1SC(=O)OCCCCCl : its log10(IC50 at 7 days) reads 2.30

Noted for CCCNC(=O)Sc1ccccc1C(=O)N[C@@H](C)C(N)=O : its log10(IC50 at 7 days) reads 1.44

Noted for NC(=O)CCNC(=O)c1ccc(Cl)cc1SC(=O)c1cccnc1 : its log10(IC50 at 7 days) reads 2.76

Cited source for all entries: patent US7528274B2
